tested_on: T1, human TNFα (human, UniProt P01375 77-233)
T1 construct: Biotinylated in the ELISAs, amine-coupled to CM5 in Biacore; also called human TNF-alpha; hTNF-alpha
Overview of recorded koff for various binders
Lab book: enter the figure in s⁻¹, no units written.

binder: TNF15 (TNF2 HUM1) (VHH, Humanised TNF2, first round) VHH: EVQLVESGGGLVQPGGSLRLSCAASGRTFSEPSGYTYTIGWFRQAPGKGREFVARIYWSSGLTYYADSVKGRFTISRDIAKNTVDLQMNSLKPEDTAVYYCAARDGIPTSRSVGSYNYWGQGTQVTVSS
recorded_number: 0.00054
//
binder: PMP1G5 (TNF2) (VHH, also called WT TNF2; not shown: C-terminal c-myc tag and (His)6 tag coded by vector pAX051) VHH: QVQLVESGGGLVQAGGSLRLSCAASGRTFSEPSGYTYTIGWFRQAPGKEREFVARIYWSSGLTYYADSVKGRFTISRDIAKNTVDLLMNSLKPEDTAVYYCAARDGIPTSRSVGSYNYWGQGTQVTVSS
recorded_number: 0.00083
//
binder: TNF19 (TNF2 HUM5) (VHH, Humanised TNF2, first round) VHH: EVQLVESGGGLVQPGGSLRLSCAASGRTFSEPSGYTYTIGWFRQAPGKGREFVARIYWSSGLTYYADSVKGRFTISRDIAKNTVDLQMNSLKPEDTAVYYCAARDGIPTSRSVGSYNYWGQGTLVTVSS
recorded_number: 0.00079
//
binder: TNF18 (TNF2 HUM4) (VHH, Humanised TNF2, first round) VHH: EVQLVESGGGLVQPGGSLRLSCAASGRTFSEPSGYTYTIGWFRQAPGKGREFVARIYWSSGLTYYADSVKGRFTISRDIAKNTVDLQMNSLRPEDTAVYYCAARDGIPTSRSVGSYNYWGQGTQVTVSS
recorded_number: 0.0007

What value of koff has been reported for the following binder? TNF16 (TNF2 HUM2) (VHH, Humanised TNF2, first round) VHH: EVQLVESGGGLVQPGGSLRLSCAASGFTFSEPSGYTYTIGWFRQAPGKGREFVARIYWSSGLTYYADSVKGRFTISRDIAKNTVDLQMNSLKPEDTAVYYCAARDGIPTSRSVGSYNYWGQGTQVTVSS
0.00066

What about this binder? TNF17 (TNF2 HUM3) (VHH, Humanised TNF2, first round) VHH: EVQLVESGGGLVQPGGSLRLSCAASGRTFSEPSGYTYTIGWFRQAPGKGREFVARIYWSSGLTYYADSVKGRFTISRDNAKNTVDLQMNSLKPEDTAVYYCAARDGIPTSRSVGSYNYWGQGTQVTVSS
0.0011
